assay: MTD in mice
test conditions: BALB/c, mouse, in vivo, ip
Where a name gives a salt, the structure may show the parent alone.
observed property: MTD

> print(dat)
                                   molecule  observed.property    result
1  COc1ccc(N(C)c2nc(C)nc3c(Cc4ccccc4)cn(C)c23)cc1 [Compound 4.HCl]                MTD  40 mg/kg

* * *

System: wild type HeLa cells
assay: HeLa cytotoxicity, wild type
Format: cell-based
observed property: IC50 (nM)

> print(dat)
                                   molecule  observed.property  result
1  COc1ccc(/C=C\c2cc(OC)c(OC)c(OC)c2)cc1O [combretastatin A-4, reference compound]               IC50     1.8

* * *

Tested on: wild type HeLa cells
assay: HeLa cytotoxicity, wild type
Assay type: cell-based
test conditions: Homo sapiens
In this section we review reported IC50 values for a set of compounds.

chemical string	IC50 / µM
COc1ccc(N(C)c2nc(C)nc3c(Cc4ccccc4)cn(C)c23)cc1	0.014
CC(=O)O[C@H]1C(=O)[C@@]2(C)[C@H]([C@H](OC(=O)c3ccccc3)[C@]3(O)C[C@H](OC(=O)[C@H](O)[C@@H](NC(=O)c4ccccc4)c4ccccc4)C(C)=C1C3(C)C)[C@]1(OC(C)=O)CO[C@@H]1C[C@@H]2O	0.0053
CC(=O)O[C@@]12CO[C@@H]1C[C@H](O)[C@@]1(C)C(=O)[C@H](O)C3=C(C)[C@@H](OC(=O)[C@H](O)[C@@H](NC(=O)OC(C)(C)C)c4ccccc4)C[C@@](O)([C@@H](OC(=O)c4ccccc4)[C@H]21)C3(C)C	0.004
COc1ccc2c(c1)CCCN2c1nc(C)nc2c(Cc3ccccc3)c[nH]c12	0.25
COc1ccc(Nc2nc(C)nc3c(Cc4ccccc4)cn(C)c23)cc1	5
COc1ccc2c(c1)CCCN2c1nc(C)nc2c(Cc3ccccc3)cn(C)c12	0.06

* * *

In this section we review reported IC50 values for a set of compounds.
subject of test: EGFR (Homo sapiens)
Sequence (P00533 25-1210, species assumed): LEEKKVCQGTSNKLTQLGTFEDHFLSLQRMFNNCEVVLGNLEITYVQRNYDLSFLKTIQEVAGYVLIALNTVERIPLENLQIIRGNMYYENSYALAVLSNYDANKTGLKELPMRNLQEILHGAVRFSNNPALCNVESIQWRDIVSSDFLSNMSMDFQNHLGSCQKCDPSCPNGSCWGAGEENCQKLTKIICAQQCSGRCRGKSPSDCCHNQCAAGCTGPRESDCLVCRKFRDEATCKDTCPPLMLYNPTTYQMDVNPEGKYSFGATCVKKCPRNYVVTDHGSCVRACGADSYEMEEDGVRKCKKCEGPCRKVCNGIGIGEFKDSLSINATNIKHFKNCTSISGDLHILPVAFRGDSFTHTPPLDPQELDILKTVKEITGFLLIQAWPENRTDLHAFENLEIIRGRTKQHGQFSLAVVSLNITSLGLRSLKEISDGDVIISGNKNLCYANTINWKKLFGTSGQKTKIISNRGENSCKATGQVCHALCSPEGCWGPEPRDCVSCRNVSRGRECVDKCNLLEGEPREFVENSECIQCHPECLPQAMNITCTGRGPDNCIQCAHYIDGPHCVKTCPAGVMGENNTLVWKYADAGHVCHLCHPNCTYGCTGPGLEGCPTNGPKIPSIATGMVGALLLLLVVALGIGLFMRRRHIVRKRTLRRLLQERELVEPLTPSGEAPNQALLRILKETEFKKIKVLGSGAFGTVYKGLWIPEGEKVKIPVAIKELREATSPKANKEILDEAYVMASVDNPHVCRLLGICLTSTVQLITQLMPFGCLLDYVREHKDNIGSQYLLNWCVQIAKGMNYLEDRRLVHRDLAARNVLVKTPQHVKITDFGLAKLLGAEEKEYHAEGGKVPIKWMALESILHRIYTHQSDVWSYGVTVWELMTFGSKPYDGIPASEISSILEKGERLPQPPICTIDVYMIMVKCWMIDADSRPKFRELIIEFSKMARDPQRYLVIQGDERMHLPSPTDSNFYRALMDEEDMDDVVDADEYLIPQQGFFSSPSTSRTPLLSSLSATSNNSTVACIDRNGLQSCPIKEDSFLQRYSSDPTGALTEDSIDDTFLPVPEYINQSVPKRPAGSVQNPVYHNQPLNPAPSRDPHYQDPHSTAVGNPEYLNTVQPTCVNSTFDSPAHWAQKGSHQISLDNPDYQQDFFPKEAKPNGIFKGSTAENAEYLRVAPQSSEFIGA
assay: EGFR kinase inhibition, whole-cell assay
test conditions: read-out: kinase inhibition IC50 [whole-cell assays] EGFR
observed property: IC50 (nM)

> print(dat)
                            chemical.string  observed.property  unit.tag  result
1  COc1ccc2c(c1)CCCN2c1nc(C)nc2c(Cc3ccccc3)cn(C)c12               IC50        nM     4.9
2  COc1ccc(Nc2nc(C)nc3c(Cc4ccccc4)cn(C)c23)cc1               IC50        nM     2.6
3  COc1ccc(N(C)c2nc(C)nc3c(Cc4ccccc4)cn(C)c23)cc1               IC50        nM     2.3
4  COc1ccc2c(c1)CCCN2c1nc(C)nc2c(Cc3ccccc3)c[nH]c12               IC50        nM    33.6

* * *

Tested on: βIII-tubulin overexpressing HeLa cell line
assay: HeLa cytotoxicity, βIII-tubulin overexpressing
Format: cell-based
test conditions: βIII-tubulin overexpressing HeLa
pIC50: −log10 of the molar value.
observed property: pIC50

> print(dat)
                                   compound  observed.property  result
1  COc1ccc(/C=C\c2cc(OC)c(OC)c(OC)c2)cc1O [combretastatin A-4, reference compound]              pIC50    8.60
